- Test system: PC-3
- METHOD NOTES: NCI tumour cell line growth inhibition, 48 h
The source made the active and inactive calls. Cut-off read from the data, not from the text of the source: active = GI50 up to about 1.1 µM and inactive = higher.
MEASURE: GI50

Recorded results for 5 compounds are shown here.
# COMPOUND, TESTED TARGET, RESULT
measured = [
    ("CC[C@H](CO)Nc1nc(NCc2ccccc2)c2ncn(C(C)C)c2n1 [SELICICLIB]", "PC-3", "19.9 µM (inactive)"),
    ("NCOC(=O)Cc1ccc(Br)cc1", "PC-3", "> 100 µM (inactive)"),
    ("Oc1cc(-c2cccc(Br)c2)nc2cc3c(cc12)OCO3", "PC-3", "5.43 µM (inactive)"),
    ("CC(=O)OC(OC(C)=O)c1c2ccccc2cc2ccccc12", "PC-3", "3.59 µM (inactive)"),
    ("CCN(CCO)CC1COc2ccccc2O1 (stereo unspecified)", "PC-3", "> 100 µM (inactive)"),
]

Requested field: GI50. Item: "OCCCNCc1ccncc1" > 100 µM (inactive)

Give the measured GI50 of O=C1C(C(O)(C(F)(F)Cl)C(F)(F)Cl)CCCC1C(O)(C(F)(F)Cl)C(F)(F)Cl (stereo unspecified) . > 10 µM (inactive)

Using the record for "CO/C(=N\N=C\c1cccc(Cl)c1)c1ccncc1" , report its GI50. > 10 µM (inactive)

Would you kindly share the measured GI50 for "COc1c2occc2c(N)c2ccc(=O)oc12" ? > 100 µM (inactive)

State the recorded GI50 for this entry: "C[N+]1(C)C2Cc3ccccc3C1Cc1ccccc12" 75.7 µM (inactive)

Fill in the blank: the reported GI50 of "Cc1nc(C(N)=S)sc1C(=O)C/C(=N/N)C(=O)Nc1cccc(Cl)c1C" is ____. > 100 µM (inactive)

###

Listing of entries alongside the reported GI50.
- System: SNB-19
- METHOD NOTES: NCI tumour cell line growth inhibition, 48 h
Where a name gives a salt, the structure may show the parent alone. Calls of active or inactive are those of the source. Rule as the data show it: active = GI50 up to about 1.1 µM and inactive = higher.

# COMPOUND, GI50
rows = [
    ("CC(=O)Nc1ccc(C(=O)NN2C(=O)C(Cl)C2c2cc(Br)cc(Br)c2O)cc1 (configuration not stated)", "> 100 µM (inactive)"),
    ("CCC1CC(=O)N(SCC(N)C(=O)O)C1=O (configuration not stated)", "> 100 µM (inactive)"),
    ("COc1ccc(C(SCCO)(c2ccc(OC)cc2)c2ccc(OC)cc2)cc1", "26.9 µM (inactive)"),
    ("CCOC(=O)C(N=C(c1ccccc1)c1ccccc1)N(C(=O)OC(C)(C)C)C(=O)OC(C)(C)C (configuration not stated)", "> 100 µM (inactive)"),
]

// lookup GI50 for "COC(=O)/C([Se]c1c(C)cc(C)cc1C)=C(/[Se]c1c(C)cc(C)cc1C)C(=O)OC" > 100 µM (inactive)

Find the recorded GI50 belonging to "OC[C@@H]1CC#C/C=C\C#CC[C@@H]1CO" and report it. > 100 µM (inactive)

GI50 lookup needed for CN(C)CCOC(=O)COc1ccc(Cl)cc1 [CENTROPHENOXINE HYDROCHLORIDE] , thanks. > 100 µM (inactive)

For the compound CC(=O)OCC1=C(CCC#N)N2C(=O)C(NC(=O)Cc3cccs3)C2[S+]([O-])C1 (configuration not stated) , what GI50 is on record? > 100 µM (inactive)

Item under review: "O=S(=O)(Nc1nc2ccccc2nc1Nc1ccc2ccccc2c1)c1ccccc1" . Reported GI50? 9.42 µM (inactive)

Would you kindly share the measured GI50 for COc1ccc(N[S+]([O-])C2CCCCC2)cc1 (configuration not stated) ? > 100 µM (inactive)

###

The entries below come with measured GI50 values attached.
- System: EKVX
- METHOD NOTES: NCI tumour cell line growth inhibition, 48 h
Activity calls are given as the source filed them. Cut-off read from the data, not from the text of the source: active = GI50 up to about 1.1 µM and inactive = higher.

Worked examples follow.
# MOLECULE, RESULT
rows = [
    ("COc1ccc(-c2nc(O)c3ccccc3n2)cc1", "> 100 µM (inactive)"),
    ("C[C@@H]1[C@@H](C)C(c2ccccc2)O[Si]1(C(C)(C)C)C(C)(C)C (some centres not stated)", "17.1 µM (inactive)"),
    ("N#CC(OC1OC(COC2OC(CO)C(O)C(O)C2O)C(O)C(O)C1O)c1ccccc1 (configuration not stated)", "> 225 µM (inactive)"),
    ("Cc1ccc(S(=O)(=O)N(CCNC(=O)c2cccc(O)c2O)c2cc3c4c(c2)Oc2cccc5c2C4(C)c2c(cccc2O3)O5)cc1", "37.4 µM (inactive)"),
    ("CC(=O)OC(C)c1cc2c(s1)C(=O)c1sccc1C2=O (configuration not stated)", "2.03 µM (inactive)"),
]

Which GI50 value belongs to "O=C1CSC(Cc2nc3ccccc3[nH]2)=N1" ? 33.7 µM (inactive)

Which GI50 reading was recorded for the molecule "CCOC(=O)Oc1ccc2c(c1)c(=O)c1c(NCCN(CC)CC)ccc3nnn2c31" ? 6.41 µM (inactive)

Param item = "Cc1nc(O)nc(N/N=C/c2ccc(Cl)cc2)c1C(=O)NC(C)(CO)CO" ; retrieve measured GI50. > 100 µM (inactive)

Any idea what GI50 was measured for "CCN(CC)C(=O)c1cc([N+](=O)[O-])c(=O)n2c1[nH]c1ccccc12" ? > 100 µM (inactive)

I'd like to know its GI50. The molecule in question is C=C1CCc2occ(C)c2C2C1C1=C(CC(C)C1=O)C1OC12C (configuration not stated) > 100 µM (inactive)

Recorded GI50 of "O=c1c2cc(Br)ccc2nc(CCl)n1-c1ccc(O)c([N+](=O)[O-])c1" , please. 17.5 µM (inactive)

Item "NC12c3c4cccc3Oc3cccc(c31)Oc1cccc(c12)O4" has what recorded GI50? > 50 µM (inactive)

###

compounds and their reported GI50
- Test system: HT-29
- METHOD NOTES: NCI tumour cell line growth inhibition, 48 h
Activity calls are given as the source filed them. Cut-off read from the data, not from the text of the source: active = GI50 up to about 1.1 µM and inactive = higher.

The following compounds have reported results that may help.
# COMPOUND, GI50
measured = [
    ("CCOC(=O)c1c(N2CCCC2)ncn(-c2ccccc2)c1=S", "> 100 µM (inactive)"),
    ("COC(=O)c1ccc(C)cc1/C=C1\\Cc2ccc(C)cc2C1=O", "4.73 µM (inactive)"),
    ("C[N+]1(C)C2Cc3ccccc3C1Cc1ccccc12", "> 100 µM (inactive)"),
    ("NC(Cc1ccc(CP(=O)(O)O)cc1)C(=O)O (stereo unspecified)", "> 100 µM (inactive)"),
    ("COc1cc(Nc2cc(Cl)cc(Cl)c2)nc(N)n1", "17.8 µM (inactive)"),
]

Now examine the next entry.
Suppose we examine the compound CCCCCCCN(CCCCCCC)CC(O)c1cc2ccccc2c2cc(Br)ccc12 (stereo unspecified) ; what GI50 value has been reported? 67 µM (inactive)

###

Each entry below carries its reported GI50.
- Tested on: NCI-H522
- METHOD NOTES: NCI tumour cell line growth inhibition, 48 h
Activity calls are given as the source filed them. Cut-off read from the data, not from the text of the source: active = GI50 up to about 1.1 µM and inactive = higher.

Example entries and their recorded answers appear below.
# MOLECULE, GI50
records = [
    ("O=c1n(CCCN2CCN(c3cccc(Cl)c3)CC2)nc2n1-c1ccc3ccccc3c1SC2", "> 100 µM (inactive)"),
    ("CCOC(=O)/C(C(=O)Nc1ccc(Cl)cc1)=C(/N)N1CCOCC1", "> 100 µM (inactive)"),
]

Consider the additional molecule presented here.
Which measured GI50 value corresponds to CCCC(C)c1c(Cl)nc(Cl)nc1Cl (stereo not drawn) ? 1.13 µM (inactive)

###

- Test system: K562
- METHOD NOTES: NCI tumour cell line growth inhibition, 48 h
Active and inactive are the calls of the source. Cut-off read from the data, not from the text of the source: active = GI50 up to about 1.1 µM and inactive = higher.
Property: GI50; scope: individual compounds

Worked set:
# COMPOUND, RESULT
measured = [
    ("CCOC(=O)c1c(N2CCCC2)ncn(-c2ccccc2)c1=S", "> 100 µM (inactive)"),
    ("N=C(N)N/N=C(/CCN1CCCC1)CC(c1ccccc1)c1c(O)c2ccccc2oc1=O (stereo unspecified)", "> 100 µM (inactive)"),
    ("CN(C)CC1CCCC/C1=N/OC(=O)c1ccc(Cl)cc1 (stereo unspecified)", "> 100 µM (inactive)"),
    ("O=C(Nc1nc(C23CC4CC(CC(C4)C2)C3)cs1)c1cc2cc([N+](=O)[O-])ccc2oc1=O", "> 100 µM (inactive)"),
    ("O=C(CN1c2ccccc2Sc2ccccc21)n1cnc2ccccc21", "99.5 µM (inactive)"),
]

Bench note: what GI50 did "Cc1cc2c(c(C(=O)NCCC(=O)O)c1)Oc1c(cc(C)cc1C(=O)NCCC(=O)O)S2" show? > 100 µM (inactive)

What measured GI50 goes with "O=C(O)CCN(CCC(=O)O)c1ccc(/C=C2\SC(=S)NC2=O)cc1" ? > 100 µM (inactive)

Please report the recorded GI50 for "O=C1ON=C2C3CC4CC12CC1(C3)C(=O)ON=C41" . > 100 µM (inactive)

Recorded GI50 for "O=c1n(CCCN2CCN(c3cccc(Cl)c3)CC2)nc2n1-c1ccc3ccccc3c1SC2" , please? > 100 µM (inactive)

What value of GI50 has been reported for the following compound? CC(=O)c1ccc(NC(=O)C(=O)C(C#N)CC(C)(C)C=O)cc1 (stereo unspecified) > 100 µM (inactive)

Any idea what its GI50 is? The compound is C=CCNC(=S)N1c2ccccc2NC(=O)CC1C (stereo unspecified) > 100 µM (inactive)

Look up GI50 for this compound: "CCOC(=O)c1nc2cc(N3CCOCC3)c(F)cc2[nH]c1=O" > 100 µM (inactive)

Could you share which GI50 value was measured for "Oc1ccc(SCc2cc(O)ccc2O)cc1" ? 3.96 µM (inactive)

Fill in: GI50 of "O=P(O)(O)CN1CCNCCN(CP(=O)(O)O)CCN(CP(=O)(O)O)CCNCC1" is ___ > 100 µM (inactive)

Consider the compound Cc1c(Cl)cccc1NC(=O)CC1C(=O)Nc2ccccc2S1(=O)=O (stereo unspecified) and give its measured GI50. 5.5 µM (inactive)

Please look up its GI50: "CC(=O)NC1=CC(=O)C=C(Cl)C1=O" 33.7 µM (inactive)

I have this compound here, "O=C1NC2(CCNCC2)Oc2ccccc21" , and I need its recorded GI50. > 100 µM (inactive)

Give the measured GI50 of COc1cc(C2C3=C(COC3=O)Oc3cc4c(cc32)OCO4)ccc1O (stereo unspecified) . 0.148 µM (active)

So what does the record say about GI50 for CC(=O)OCC1(CNc2nc(N)ncc2C#N)CC(CCc2ccccc2)C1 (stereo unspecified) ? 2.2 µM (inactive)

For CC1OC(O)CC(N(C)C)C1O.CC1OC(O)CCC1O.CCC1CC(O)c2c(O)c3c(c(O)c2C1O)C(=O)c1cccc(O)c1C3=O (stereo unspecified) , what is its reported GI50? 0.00597 µM (active)

What value of measured GI50 is listed for "C/C1=C/C(=O)O[C@@H]2C[C@@H](CC[C@H](C)/C=C\C=C\CC1)O[C@@](O)([C@@H]1CSC(=O)N1)C2" ? 3.34 µM (inactive)
